# system.name: αIIbβ3 (Homo sapiens, UniProt P05106+P08514)
# Construct: purchased Sigma
# Sequence (P08514 32-887 limits assumed): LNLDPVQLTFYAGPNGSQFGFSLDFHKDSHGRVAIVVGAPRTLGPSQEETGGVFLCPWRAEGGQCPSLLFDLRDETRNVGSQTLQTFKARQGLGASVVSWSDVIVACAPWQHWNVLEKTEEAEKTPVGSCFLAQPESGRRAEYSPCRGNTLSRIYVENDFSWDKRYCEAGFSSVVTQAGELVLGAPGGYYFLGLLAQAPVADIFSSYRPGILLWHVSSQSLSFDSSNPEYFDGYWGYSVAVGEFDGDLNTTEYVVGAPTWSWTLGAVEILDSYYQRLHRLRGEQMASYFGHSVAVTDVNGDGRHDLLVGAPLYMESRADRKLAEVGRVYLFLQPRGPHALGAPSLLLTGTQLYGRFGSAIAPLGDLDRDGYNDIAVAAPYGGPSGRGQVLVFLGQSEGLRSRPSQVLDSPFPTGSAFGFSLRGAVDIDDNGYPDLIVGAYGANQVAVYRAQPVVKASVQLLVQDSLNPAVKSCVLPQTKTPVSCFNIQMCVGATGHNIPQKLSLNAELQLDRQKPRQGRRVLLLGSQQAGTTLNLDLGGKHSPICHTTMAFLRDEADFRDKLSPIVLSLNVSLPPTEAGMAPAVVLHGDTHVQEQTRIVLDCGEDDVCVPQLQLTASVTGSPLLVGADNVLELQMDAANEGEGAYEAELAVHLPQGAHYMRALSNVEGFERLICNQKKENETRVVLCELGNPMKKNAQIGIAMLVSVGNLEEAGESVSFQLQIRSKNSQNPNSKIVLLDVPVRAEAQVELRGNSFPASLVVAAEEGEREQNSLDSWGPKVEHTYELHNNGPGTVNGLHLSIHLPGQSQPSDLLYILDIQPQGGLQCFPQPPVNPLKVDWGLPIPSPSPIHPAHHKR
# Sequence (P08514 891-1039 partner limits assumed): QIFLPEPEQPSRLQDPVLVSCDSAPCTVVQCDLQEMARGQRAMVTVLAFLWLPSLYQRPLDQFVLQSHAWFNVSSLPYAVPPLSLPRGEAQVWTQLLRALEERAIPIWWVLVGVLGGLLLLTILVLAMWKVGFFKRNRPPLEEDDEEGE
# Sequence (P05106 27-788): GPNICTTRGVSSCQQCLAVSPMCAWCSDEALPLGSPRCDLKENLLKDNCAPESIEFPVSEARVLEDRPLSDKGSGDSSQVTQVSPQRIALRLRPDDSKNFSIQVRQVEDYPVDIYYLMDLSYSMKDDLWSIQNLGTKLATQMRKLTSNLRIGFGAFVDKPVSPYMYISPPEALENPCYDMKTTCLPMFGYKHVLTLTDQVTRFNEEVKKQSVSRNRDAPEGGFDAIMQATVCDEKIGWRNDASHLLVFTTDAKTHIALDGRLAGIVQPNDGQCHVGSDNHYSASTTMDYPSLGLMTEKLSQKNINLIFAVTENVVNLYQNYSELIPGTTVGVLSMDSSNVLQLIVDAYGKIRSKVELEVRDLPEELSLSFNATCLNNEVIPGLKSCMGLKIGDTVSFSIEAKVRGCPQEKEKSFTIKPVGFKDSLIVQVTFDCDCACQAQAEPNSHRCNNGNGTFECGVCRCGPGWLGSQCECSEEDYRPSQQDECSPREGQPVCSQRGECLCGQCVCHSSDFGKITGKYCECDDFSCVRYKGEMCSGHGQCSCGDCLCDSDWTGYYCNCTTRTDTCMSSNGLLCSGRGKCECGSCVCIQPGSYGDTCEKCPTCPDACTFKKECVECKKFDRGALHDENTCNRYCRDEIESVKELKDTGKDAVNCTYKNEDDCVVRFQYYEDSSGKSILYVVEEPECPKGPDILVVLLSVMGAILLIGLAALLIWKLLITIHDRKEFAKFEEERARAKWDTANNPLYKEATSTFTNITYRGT
# method: αIIbβ3/fibrinogen purified protein binding ELISA
# details: mean ± SD, read-out: IC50 (αIIbβ3/Fg)
value.kind: IC50

For the compound shown here, COC(=O)[C@H](CNC(=O)[C@H]1C[C@H](CCc2ccc3cccnc3n2)C1)NS(=O)(=O)c1c(C)cc(C)cc1C , give the reported IC50. > 100 µM

Proceed to Cc1cc(C)c(S(=O)(=O)N[C@@H](CNC(=O)C2CC(CCNc3ncccn3)C2)C(=O)O)c(C)c1 (stereo partly shown) [ICT9031 52] 1.7 µM

Proceed to COC(=O)[C@H](CNC(=O)[C@H]1C[C@H](CCc2ccc3c(n2)NCCC3)C1)NS(=O)(=O)c1c(C)cc(C)cc1C > 50 µM

Proceed to Cc1cc(C)c(S(=O)(=O)N[C@@H](CNC(=O)C2CC(CCc3ccc4cccnc4n3)C2)C(=O)O)c(C)c1 (stereo partly shown) 4.1 µM

Proceed to Cc1cc(C)c(S(=O)(=O)N[C@@H](CNC(=O)[C@H]2C[C@@H](CCCNc3ncccn3)C2)C(=O)O)c(C)c1 0.39 µM

Proceed to COC(=O)[C@H](CNC(=O)[C@H]1C[C@H](CCNc2ncccn2)C1)NS(=O)(=O)c1c(C)cc(C)cc1C 50 µM

Proceed to COC(=O)[C@H](CNC(=O)[C@H]1C[C@@H](CCCNc2ncccn2)C1)NS(=O)(=O)c1c(C)cc(C)cc1C > 100 µM

====

# system.name: αvβ3 (Homo sapiens, UniProt P05106+P06756)
# Construct: endogenous in cells; host or cells: SK-Mel-2 melanoma cells
# Sequence (P06756 31-889 limits assumed): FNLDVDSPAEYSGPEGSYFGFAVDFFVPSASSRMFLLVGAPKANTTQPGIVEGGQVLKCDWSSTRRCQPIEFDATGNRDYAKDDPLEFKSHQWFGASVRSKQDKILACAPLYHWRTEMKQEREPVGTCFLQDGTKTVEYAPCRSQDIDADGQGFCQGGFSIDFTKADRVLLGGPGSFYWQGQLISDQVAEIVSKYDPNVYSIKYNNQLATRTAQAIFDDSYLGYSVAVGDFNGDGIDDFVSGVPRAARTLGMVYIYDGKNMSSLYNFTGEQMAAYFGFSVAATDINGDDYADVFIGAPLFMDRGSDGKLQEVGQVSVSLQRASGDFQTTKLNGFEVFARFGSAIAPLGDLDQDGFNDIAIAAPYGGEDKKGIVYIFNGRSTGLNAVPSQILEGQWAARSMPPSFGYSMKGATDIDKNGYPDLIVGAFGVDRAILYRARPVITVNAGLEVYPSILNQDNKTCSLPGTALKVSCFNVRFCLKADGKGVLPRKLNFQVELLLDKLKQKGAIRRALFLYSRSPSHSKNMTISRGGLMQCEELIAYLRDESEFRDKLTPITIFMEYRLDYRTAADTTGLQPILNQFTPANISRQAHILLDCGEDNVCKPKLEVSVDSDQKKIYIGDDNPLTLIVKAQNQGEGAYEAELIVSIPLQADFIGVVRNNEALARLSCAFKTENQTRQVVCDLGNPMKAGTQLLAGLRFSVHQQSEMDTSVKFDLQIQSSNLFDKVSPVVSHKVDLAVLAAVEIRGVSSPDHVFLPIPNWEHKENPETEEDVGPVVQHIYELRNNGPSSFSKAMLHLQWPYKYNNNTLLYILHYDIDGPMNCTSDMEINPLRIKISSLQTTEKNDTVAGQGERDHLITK
# Sequence (P06756 891-1048 partner limits assumed): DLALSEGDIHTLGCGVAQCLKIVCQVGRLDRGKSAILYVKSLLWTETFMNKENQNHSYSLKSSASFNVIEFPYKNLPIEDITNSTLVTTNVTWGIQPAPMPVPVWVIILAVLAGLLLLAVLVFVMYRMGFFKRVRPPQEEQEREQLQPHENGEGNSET
# Sequence (P05106 27-788): as the sequence (P05106 27-788) above
# method: Sk-Mel-2 cell adhesion to immobilised fibronectin (cell-binding assay, MTT readout)
# Type: cell-based
# details: Sk-Mel-2 adhesion to Fn, 50 μM, mean ± SD
value.kind: Adhesion % Inhibition @ 50 μM (%)
// units = %; emit number, no label

API: value(readout=Adhesion % Inhibition @ 50 μM, system=αvβ3 (Homo sapiens, UniProt P05106+P06756)) for record COC(=O)[C@@H](CNC(=O)[C@H]1C[C@@H](CCCNc2ncccn2)C1)NS(=O)(=O)c1ccccc1 [ICT9021 25] 22.2

Proceed to O=C(O)[C@H](CNC(=O)[C@H]1C[C@@H](CCCNc2ncccn2)C1)NS(=O)(=O)c1ccccc1 [ICT9029 54] 42.5

Proceed to Cc1cc(C)c(S(=O)(=O)N[C@@H](CNC(=O)C2CC(CCNc3ncccn3)C2)C(=O)O)c(C)c1 (stereo partly shown) [ICT9031 52] 11.1

Proceed to Cc1cc(C)c(S(=O)(=O)N[C@@H](CNC(=O)C2CC(CCNc3ncccn3)C2)C(=O)O)c(C)c1 (stereo partly shown) [ICT9030 50] 51

====

# method: Cytotoxicity by MTT assay, 96 h, M14
# Format: cell-based, human
# details: human
value.kind: IC50 at 96 h

For the compound shown here, CC(C)[C@@H]1NC(=O)[C@@H](Cc2ccccc2)NC(=O)[C@H](CC(=O)O)NC(=O)CNC(=O)[C@H](CCCNC(=N)N)NC1=O [cRGDfV, reference compound] , give the reported IC50 at 96 h. > 50 µM

====

# system.name: αvβ3 (Homo sapiens, UniProt P05106+P06756)
# Construct: endogenous in cells; host or cells: SK-Mel-2 melanoma cells
# method: Sk-Mel-2 cell adhesion to immobilised fibronectin (cell-binding assay, MTT readout)
# Type: cell-based
# details: Sk-Mel-2 adhesion to Fn, mean ± SD
value.kind: IC50

API: value(readout=IC50, system=αvβ3 (Homo sapiens, UniProt P05106+P06756)) for record O=C(O)[C@H](CNC(=O)[C@H]1C[C@@H](CCCNc2ncccn2)C1)NS(=O)(=O)c1ccccc1 > 50 µM

Proceed to Cc1cc(C)c(S(=O)(=O)N[C@@H](CNC(=O)C2CC(CCNc3ncccn3)C2)C(=O)O)c(C)c1 (some centres unmarked) [ICT9031 52] > 50 µM

Proceed to O=C(O)[C@H](CNC(=O)[C@H]1C[C@H](CCCNc2ncccn2)C1)NS(=O)(=O)c1ccccc1 > 50 µM

Proceed to COC(=O)[C@H](CNC(=O)[C@H]1C[C@H](CCc2ccc3cccnc3n2)C1)NS(=O)(=O)c1c(C)cc(C)cc1C > 5 µM

Proceed to Cc1cc(C)c(S(=O)(=O)N[C@@H](CNC(=O)C2CC(CCc3ccc4cccnc4n3)C2)C(=O)O)c(C)c1 (some centres unmarked) > 5 µM
